- Test system: SF-268 CNS
- assay_procedure: NCI-60 one-dose screen, 48 h (100 = growth as untreated, 0 = no growth, -100 = all killed)
- condition_label: 10 µM unless noted
About 83,000 compounds went through this panel and 20% of them were active in at least one assay; those are over-represented in the sample as a whole.
The following compounds are shown together with reported growth values.
Answer with a number only, understood to be in %.

Observe how each entry below is paired with its result.
INSERT INTO measurements (compound, measured_on, observed_measurement) VALUES
  ('COc1ccc(-n2nnnc2-c2cn[nH]c2C(F)(F)F)cc1', 'SF-268 CNS', 109),
  ('COc1ccc(-c2nc(SCC(C)C)nc(Nc3ccc(C(=O)O)cc3)c2C#N)cc1', 'SF-268 CNS', 91),
  ('O=C(/C=C\c1ccccc1Cl)c1ccccc1', 'SF-268 CNS', 93.4),
  ('CCOC(=O)NNc1[nH]c(-c2ccc(OC)cc2)cc1C#N', 'SF-268 CNS', 103),
  ('COc1cc(OC)c2c(=O)cc(-c3ccccc3)oc2c1', 'SF-268 CNS', 104);

Request: Identify the reported growth for the following entry. O=c1[nH]c(=S)[nH]c(O)c1/C=C1\C=Nc2ccccc21
Response: 70

Request: Output growth of COc1ccc(OC)c(Cn2cc3c(c2)-c2oncc2CC3)c1
Response: 57.5

Request: Determine from records and report growth for CCCOC(=O)c1c(C)n(C)c2scc[n+]12
Response: 89.3

Request: State its growth for this compound: NC(=O)CC(NC(=O)COc1ccc(Cl)cc1Cl)C(=O)O (centres undefined)
Response: 101

Request: Output growth of CCCCCCCCCCCCCCCCCC1=NCCN1CS(=O)(=O)O
Response: -24.5

Request: Indicate the recorded growth value for this compound: N#CC1=C(N2CCOCC2)NC2c3ccccc3Sc3ccccc3N2C1=N (centres undefined)
Response: 91.8

Request: Identify measured growth associated with Cc1[nH]n(C(=S)Nc2nc3cc(Cl)c(F)cc3s2)c(=O)c1N=Nc1ccc(F)c(Cl)c1
Response: 90

Request: Return the recorded growth value; entry: COC(=O)c1cc(=O)nc(N/N=C/c2ccccc2O)s1
Response: 88.1

Request: // fetch growth given entry COc1ccc(Cn2cc3c(c2-c2ccccc2)CCc2cnoc2-3)cc1OC
Response: 47.1

Request: Give a short answer stating reported growth for O=C(N/N=C\c1ccc(-c2ccc(Br)cc2)o1)c1cc2oc(-c3cccc(C(F)(F)F)c3)cc2[nH]1 .
Response: 87.7

Request: Give recorded growth. O=C(/C=C/c1cccc(O)c1)c1cccc(-n2cc(-c3ccc(Cl)cc3)[nH]c2=O)c1
Response: -68.3

Request: Could you please provide reported growth for CCOC(=O)c1c(C)oc2ncnc(Nc3ccc(NC(=O)Nc4cccc(Cl)c4)cc3)c12 ? Thanks!
Response: 86.4

Request: Please give measured growth of the following entry: COc1ccccc1Nc1nnc(COc2ccc(CNC(=O)CCCC/C=C/C(C)C)cc2OC)o1
Response: 90.8

Request: Return value of growth for input O=C(O)CS(=O)c1ccc(Cl)cc1 (centres undefined) , no commentary.
Response: 109

---

- Test system: CAKI-1 renal
- assay_procedure: NCI-60 one-dose screen, 48 h
- condition_label: 10 µM unless noted
Compounds without any hit were thinned out: in the full panel of roughly 83,000, 20% have a hit. Active and inactive are the calls of the source. How the source made its calls: active means growth percent below 10; inactive means the rest.
Outcome field: choose from true (1) = active, false (0) = inactive

INSERT INTO measurements (compound, assigned_class) VALUES
  ('COC1=CC(c2ccc[nH]2)=N/C1=C\c1[nH]c(C)c(C(=O)CCCCC(=O)NC(C)(C)C)c1C', 'false (0)'),
  ('Oc1ccc(Br)cc1/C=N/NC(=S)NC12CC3CC(CC(C3)C1)C2', 'true (1)'),
  ('O=C1Nc2ccccc2/C1=C/c1cn(CC(O)Cn2cc(/C=C3\C(=O)Nc4ccccc43)c3ccccc32)c2ccccc12 (stereo not drawn)', 'true (1)'),
  ('CCOC(=O)c1sc(NS(=O)(=O)c2ccccc2)nc1C', 'false (0)'),
  ('CSC1=Nc2c(c(C)c(-c3ccccc3)n2CCCCl)C2=NC(=O)CN12', 'false (0)');

Request: For COc1ccc2cc(C(C)C(=O)Nc3ccc(S(=O)(=O)Nc4cc(C)on4)cc3)ccc2c1 (stereo not drawn) , which call appears in the assay record?
Response: false (0)

Request: Entry COc1ccc2cnc(N)c(C#Cc3cc(C(=O)Nc4ccc(CN5CCN(C)CC5)c(C(F)(F)F)c4)cnc3C)c2c1 : call = ?
Response: false (0)

Request: Please state the recorded outcome for this compound: CC(C)OC(=O)c1ccc2n1CCCc1cnc(Nc3ccccc3)nc1-2
Response: false (0)
